# Assay procedure: Solubility measurement in various solvents at 23 ± 1° C. (Procedure 1)
# Assay type: physicochemical
# Condition details: DCM/MeOH (1:1), 23 °C, organic solvent or mixture, thermodynamic from solid, DCM/MeOH (1:1); read-out: Solubility at 23 ± 1° C.
Property name: solubility

Would you kindly share the measured solubility for C=CC(=O)NCc1cc2c(cn1)CN(c1c(F)c(OC)cc(OC)c1F)C(=O)C21CC1 [Compound 1 Form I] ?
> 50 mg/mL

----------
# Assay procedure: Solubility measurement in various solvents at 50 ± 1° C. (Procedure 2)
# Format: physicochemical
# Condition details: DMSO, 50 °C, organic solvent or mixture, thermodynamic from solid, DMSO; read-out: Solubility at 50 ± 1° C.
Property name: solubility

Would you kindly share the measured solubility for C=CC(=O)NCc1cc2c(cn1)CN(c1c(F)c(OC)cc(OC)c1F)C(=O)C21CC1 [Compound 1 Form I] ?
> 50 mg/mL

----------
# Assay procedure: Solubility measurement in various solvents at 50 ± 1° C. (Procedure 2)
# Format: physicochemical
# Condition details: Acetone/water (4:1), 50 °C, aqueous with cosolvent or surfactant or cyclodextrin, thermodynamic from solid, Acetone/water (4:1); read-out: Solubility at 50 ± 1° C.
Property name: solubility

Would you kindly share the measured solubility for C=CC(=O)NCc1cc2c(cn1)CN(c1c(F)c(OC)cc(OC)c1F)C(=O)C21CC1 [Compound 1 Form I] ?
> 50 mg/mL

----------
# Assay procedure: Solubility measurement in various solvents at 23 ± 1° C. (Procedure 1)
# Assay type: physicochemical
# Condition details: Chloroform, 23 °C, organic solvent or mixture, thermodynamic from solid, Chloroform; read-out: Solubility at 23 ± 1° C.
Property name: solubility (mg/mL)
Could you give me the number in mg/mL? Just the number is fine.

Would you kindly share the measured solubility for C=CC(=O)NCc1cc2c(cn1)CN(c1c(F)c(OC)cc(OC)c1F)C(=O)C21CC1 [Form II] ?
26.7

----------
# Assay procedure: Solubility measurement in various solvents at 23 ± 1° C. (Procedure 1)
# Assay type: physicochemical
# Condition details: Acetone/water (1:4), 23 °C, aqueous with cosolvent or surfactant or cyclodextrin, thermodynamic from solid, Acetone/water (1:4); read-out: Solubility at 23 ± 1° C.
Property name: solubility

Would you kindly share the measured solubility for C=CC(=O)NCc1cc2c(cn1)CN(c1c(F)c(OC)cc(OC)c1F)C(=O)C21CC1 [Compound 1 Form I] ?
170 µg/mL

----------
# Assay procedure: Solubility measurement in various solvents at 50 ± 1° C. (Procedure 2)
# Format: physicochemical
# Condition details: 50 °C, organic solvent or mixture, thermodynamic from solid, at 50° C. in heptane, hexane, toluene, MTBE, isobutyl acetate, IPAc, water, and acetone water (1:4); read-out: Solubility (insoluble)
Property name: solubility

Would you kindly share the measured solubility for C=CC(=O)NCc1cc2c(cn1)CN(c1c(F)c(OC)cc(OC)c1F)C(=O)C21CC1 [Compound 1 Form I] ?
< 1000 µg/mL

----------
# Assay procedure: Solubility measurement in various solvents at 23 ± 1° C. (Procedure 1)
# Assay type: physicochemical
# Condition details: ethyl formate, 23 °C, organic solvent or mixture, thermodynamic from solid, Ethyl formate; read-out: Solubility at 23 ± 1° C.
Property name: solubility (µg/mL)
Could you give me the number in µg/mL? Just the number is fine.

Would you kindly share the measured solubility for C=CC(=O)NCc1cc2c(cn1)CN(c1c(F)c(OC)cc(OC)c1F)C(=O)C21CC1 [Compound 1 Form I] ?
2200
